Values from patent US20250122223A1

# Target Desc: USP7 (Homo sapiens (Human), UniProt Q93009)
# Sequence (Q93009 whole entry): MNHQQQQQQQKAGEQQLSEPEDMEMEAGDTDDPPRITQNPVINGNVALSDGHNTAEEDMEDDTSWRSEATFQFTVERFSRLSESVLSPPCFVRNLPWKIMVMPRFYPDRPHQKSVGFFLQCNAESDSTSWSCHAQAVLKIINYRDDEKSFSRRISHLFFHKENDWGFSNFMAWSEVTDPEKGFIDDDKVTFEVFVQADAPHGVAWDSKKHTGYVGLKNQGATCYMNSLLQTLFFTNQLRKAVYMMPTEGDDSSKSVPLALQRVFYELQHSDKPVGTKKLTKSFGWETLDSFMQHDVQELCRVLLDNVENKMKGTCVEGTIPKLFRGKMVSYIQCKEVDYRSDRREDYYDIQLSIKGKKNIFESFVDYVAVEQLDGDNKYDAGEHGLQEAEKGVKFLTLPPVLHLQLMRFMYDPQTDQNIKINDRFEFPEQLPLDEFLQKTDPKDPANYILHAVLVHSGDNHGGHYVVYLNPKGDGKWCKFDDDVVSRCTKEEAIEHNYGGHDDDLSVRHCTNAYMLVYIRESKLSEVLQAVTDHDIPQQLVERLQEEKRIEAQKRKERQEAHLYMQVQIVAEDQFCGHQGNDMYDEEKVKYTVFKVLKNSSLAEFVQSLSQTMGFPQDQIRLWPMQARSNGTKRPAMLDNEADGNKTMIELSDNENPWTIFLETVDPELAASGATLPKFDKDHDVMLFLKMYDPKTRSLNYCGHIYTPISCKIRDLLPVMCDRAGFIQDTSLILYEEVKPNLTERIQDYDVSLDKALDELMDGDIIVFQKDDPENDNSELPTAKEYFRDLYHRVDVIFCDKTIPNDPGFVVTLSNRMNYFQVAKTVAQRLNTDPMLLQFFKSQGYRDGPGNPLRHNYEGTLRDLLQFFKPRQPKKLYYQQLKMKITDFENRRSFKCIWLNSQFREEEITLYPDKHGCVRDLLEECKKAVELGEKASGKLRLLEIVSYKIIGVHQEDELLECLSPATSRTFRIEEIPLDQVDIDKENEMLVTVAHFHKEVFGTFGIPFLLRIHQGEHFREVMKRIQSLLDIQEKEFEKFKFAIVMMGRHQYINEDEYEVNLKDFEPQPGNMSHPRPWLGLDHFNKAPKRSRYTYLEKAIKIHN
# Method: USP7 fluorescence polarisation (FP) assay with ubiquitin-Lys-TAMRA substrate
# Assay type: biochemical
# Experimental Setup: biochemical inhibition; unit not given in Table 3b (Table 1 and key of Table 3a use μM); read-out: USP7 IC50 activity (Table 3b)
For each entry below, report its log10 of IC50 value.
Recorded IC50 (log10, µM)

Reported log10 of IC50, compound Cc1ccc(C(=O)N2CCC(O)(Cn3cnc4c(cc(Cl)n4-c4ccc([C@H]5CO[C@H](C)CN5)c(C)c4)c3=O)CC2)c(C)c1 [Example 58] : ____
-0.38

And for C[C@H]1CN[C@H](c2ccc(-n3c(Cl)cc4c(=O)n(CC5(O)CCN(C(=O)C[C@H](c6ccccc6)C(F)(F)F)CC5)cnc43)cc2)CO1 [Example 7] ?
-1.80

Further, for O=C(c1ccc(Cl)cc1)N1CCC(O)(Cn2cnc3c(cc(Cl)n3-c3ccc(C4COC5CCCC5N4)cc3)c2=O)CC1 (stereo not drawn) [Example 54] ?
-0.82

// next record O=C(N1CCC(O)(Cn2cnc3c(cc(Cl)n3-c3ccc([C@@H]4COCCN4)cc3)c2=O)CC1)C1(C2CC2)CC1 (single isomer, unassigned) [Example 80]
-1.39

Please give the result for O=C(N1CCC(O)(Cn2cnc3c(cc(Cl)n3-c3ccc([C@H]4COCCN4)cc3)c2=O)CC1)C1(C2CC2)CC1 (single isomer, unassigned) [Example 79] too.
-1.41

Further, for C[C@H]1CN[C@H](c2ccc(-n3c(Cl)cc4c(=O)n(CC5(O)CCN(C(=O)c6ccccc6F)CC5)cnc43)cc2)CO1 [Example 36] ?
-0.29
